- Tested on: Anopheles gambiae (Giles) ss strain 16CSS female mosquitoes
- protocol_summary: warm body repellence assay (mosquito landings)
- Type: in vivo
- condition_label: 2 nmol (per cm^2, total for mixtures, 50:50)
Exercise: state measured Median repellence % for each of the compounds provided.
The figure you give is taken to be in %; do not add the unit.

Value of measured Median repellence % for the entry CCCCOC(=O)C=Cc1ccccc1 [butyl-cinnamate, butyl 3-phenylprop-2-enoate] : −1

Value of measured Median repellence % for the entry CCOC(=O)C=Cc1ccccc1 [(E)-ethyl-cinnamate, ethyl 3-phenylprop-2-enoate] : −18

Value of measured Median repellence % for the entry CCN(CC)C(=O)c1cccc(C)c1 [DEET, N,N-diethyl-3-methylbenzamide, reference compound] : 2

Value of measured Median repellence % for the entry `CC(C)c1ccc(CO)cc1` : −4

Value of measured Median repellence % for the entry `Cc1ccc(C(C)C)cc1O` : 13
